B1: CPEB3 Ribozyme (parent)
chain: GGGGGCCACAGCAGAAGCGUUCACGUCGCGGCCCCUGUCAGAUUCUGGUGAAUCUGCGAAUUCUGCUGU

Variants of: B1
Assay: self-cleavage, relative activity (ratio to wild type); higher = more cleavage; co-transcriptional
Each entry gets N if its self-cleavage stays under 0.2, and Y if its self-cleavage is 0.2 or above.

Answered cases to consult:
GGGGGCCACAGCAGAAGCGUUCGCGUCGCGGCCCCUGACAGAUUCUGGUGAAUCUGCGAAUUCUGCUGU Y
GGGGGCCACAGCAGAAGCGUUCACGUCGCGGCCCCUGUCAGAUUUUGGUGAAUCUGCGAAUUCUCCUGU Y
GGGGGCCACAGCAGAAGCGUUGACGUCGCGGCCCCUGUCAGAUUCUGGUGAAUCUGCGUAUUCUGCUGU Y
GGGAGCCACAGCAGAAGCGUUCUCGUCGCGGCCCCUGUCAGAUUCUGGUGAAUCUGCGAAUUCUGCUGU Y
GGGGGCCACAUCAGAAGCGUUCACGUCGCGGCCCCUGUCAGAUUCUGGUGAAUCUGCGAAGUCUGCUGU Y

Qu. Check this variant for self-cleavage at or above 0.2: GGGGGCCACAGCAGAGGCGUUCACGUCGCGGCGCCUGUCAGAUUCUGGUGAAUCUGCGAAUUCUGCUGU
Ans. Y

Qu. Check this variant for self-cleavage at or above 0.2: GGGGGCCACAGCAGAAGCGUUCACGUCGCGGCCCGUGUCAGAUUCUGGUGAACCUGCGAAUUCUGCUGU
Ans. Y

Qu. Check this variant for self-cleavage at or above 0.2: GGGGGCCACAGCAGAAGAGUUCACGUCGCGGCCCCUGUCAGAGUCUGGUGAAUCUGCGAAUUCUGCUGU
Ans. N

Qu. Check this variant for self-cleavage at or above 0.2: GGGGGCCACAGCAGAAACGUUCACGUCGCGGCCCCUAUCAGAUUCUGGUGAAUCUGCGAAUUCUGCUGU
Ans. N
